target: T1, recombinant human IL-23 (human, UniProt Q9NPF7 20-189; P29460 23-328)
T1 construct: Heterodimer of p19 and p40; also called hIL-23; interleukin-23; not shown: single C-terminal 6xHis tag
T1 sequence 1: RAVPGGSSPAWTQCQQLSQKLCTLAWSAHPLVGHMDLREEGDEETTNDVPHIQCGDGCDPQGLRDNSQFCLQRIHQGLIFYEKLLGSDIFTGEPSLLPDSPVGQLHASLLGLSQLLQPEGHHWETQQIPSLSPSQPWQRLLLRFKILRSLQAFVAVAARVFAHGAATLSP
T1 sequence 2: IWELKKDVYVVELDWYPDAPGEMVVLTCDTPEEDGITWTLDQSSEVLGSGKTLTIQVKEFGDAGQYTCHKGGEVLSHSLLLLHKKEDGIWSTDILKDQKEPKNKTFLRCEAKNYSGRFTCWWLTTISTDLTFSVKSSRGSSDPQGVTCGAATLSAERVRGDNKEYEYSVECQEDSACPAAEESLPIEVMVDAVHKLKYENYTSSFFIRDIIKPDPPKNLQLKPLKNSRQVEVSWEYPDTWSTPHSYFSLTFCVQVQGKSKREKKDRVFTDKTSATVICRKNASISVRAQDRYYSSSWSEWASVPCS
test: IL-23-IL-23R neutralisation ELISA
pEC50: −log10 of the molar value.
property: pEC50

Would you please look over these solved cases?
[
  {
    "binder": "ID-L252T (VHH, Relative to ID-L253T: D1E, V40A, Q44E, R45L, I69L, L78V) VHH: EVQLVESGGGQVQPGGSLSLSCESSVSIWSFKVMGWFRQAPGKELELVATITTGGSPDYSDSVKGRFTLSRDYDKRTVYLQMNSLKPEDTAVYYCAGRLWAHITSSGHDVWGQGTQVTVSS",
    "property": "pEC50",
    "experimental.result": 9.59
  },
  {
    "binder": "ID-L238T (VHH, Relative to ID-L253T: D1E, S19R, V40A, V92R) VHH: EVQLVESGGGQVQPGGSLRLSCESSVSIWSFKVMGWFRQAPGKQRELVATITTGGSPDYSDSVKGRFTISRDYDKRTLYLQMNSLKPEDTARYYCAGRLWAHITSSGHDVWGQGTQVTVSS",
    "property": "pEC50",
    "experimental.result": 9.70
  }
]

[A] ID-L242T (VHH, Relative to ID-L253T: D1E, S19R, S60R, V92R) VHH: EVQLVESGGGQVQPGGSLRLSCESSVSIWSFKVMGWFRQVPGKQRELVATITTGGSPDYRDSVKGRFTISRDYDKRTLYLQMNSLKPEDTARYYCAGRLWAHITSSGHDVWGQGTQVTVSS
[B] ID-L249T (VHH, Relative to ID-L253T: D1E, V40A, R45L, D58H) VHH: EVQLVESGGGQVQPGGSLSLSCESSVSIWSFKVMGWFRQAPGKQLELVATITTGGSPHYSDSVKGRFTISRDYDKRTLYLQMNSLKPEDTAVYYCAGRLWAHITSSGHDVWGQGTQVTVSS
stdin: From the items above, decide which of A and B has the lower pEC50 reading. # reply format: chosen label
stdout: B
